- protocol: Apparent permeability of compound
- Assay type: ADME
- measurement-setup: not told
metric-name: Papp
Answer format: number, then unit.

Query: Please look up its Papp: CCOc1ccccc1O[C@@H]1CCCN(c2ncc(C(=O)NCc3cccc(C(=O)O)c3)cn2)C1
Response: 2 ×10⁻⁶ cm/s

---

- protocol: Volume of distribution at steady state in cynomolgus monkey at 1 mg/kg, iv
- Format: ADME, organism-based, Macaca fascicularis
- measurement-setup: in vivo, read-out: Vdss
metric-name: Vd (L/kg)
Respond numerically; units are L/kg and should not be typed.

Query: Please look up its Vd: CCOc1cccnc1Oc1cncc(-c2ncc(C(=O)N[C@H]3CCOC3)cn2)c1
Response: 0.7
